Where do the numbers come from? From ChEMBL document CHEMBL4428077.

- Protocol Text: Intrinsic clearance in rat liver microsomes at 3 uM incubated up to 60 mins by LC-MS analysis
- Type: ADME, Microsome
- Test Conditions: read-out: CLH

Smiles Notation: CCCS(=O)(=O)N1CCN(C2(CNC(=O)c3c(Cl)cccc3Cl)CCC(F)(F)CC2)CC1
U: µL/min/mg
microsomal CLint at 3 µM: 4.3

Smiles Notation: CCCS(=O)(=O)N1CCN(C2(CNC(=O)c3ccc(C(F)(F)F)cc3Cl)CCC(F)(F)CC2)CC1
U: µL/min/mg
microsomal CLint at 3 µM: 11

Smiles Notation: CCCS(=O)(=O)N1CCN(C2(CNC(=O)c3ccc(C(F)(F)F)cc3C(F)(F)F)CCC(F)(F)CC2)CC1
U: µL/min/mg
microsomal CLint at 3 µM: 4.9

----------
- Subject Of Test: Cytochrome P450 2D6 (Homo sapiens, UniProt P10635)
- Sequence (P10635 whole entry): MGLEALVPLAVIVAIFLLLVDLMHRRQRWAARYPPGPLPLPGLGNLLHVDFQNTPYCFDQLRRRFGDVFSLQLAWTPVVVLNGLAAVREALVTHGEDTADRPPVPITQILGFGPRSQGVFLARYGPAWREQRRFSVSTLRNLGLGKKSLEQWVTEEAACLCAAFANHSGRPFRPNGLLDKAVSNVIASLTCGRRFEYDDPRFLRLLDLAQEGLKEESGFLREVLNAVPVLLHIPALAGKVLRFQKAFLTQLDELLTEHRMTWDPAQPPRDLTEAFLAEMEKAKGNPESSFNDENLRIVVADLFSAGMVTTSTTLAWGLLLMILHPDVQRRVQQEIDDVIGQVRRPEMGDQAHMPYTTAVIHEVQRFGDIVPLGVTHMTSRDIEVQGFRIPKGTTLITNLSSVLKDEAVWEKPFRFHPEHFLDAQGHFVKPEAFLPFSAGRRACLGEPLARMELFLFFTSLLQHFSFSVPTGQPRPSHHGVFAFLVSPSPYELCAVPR
- Protocol Text: Inhibition of CYP2D6 (unknown origin)
- Type: ADME

Compound: CC(NC(=O)c1ccc(C(F)(F)F)cc1Cl)C1(N2CCN(S(=O)(=O)c3cn(C)nn3)CC2)CCC(F)(F)CC1.Cl (single isomer, unassigned; (+))
IC50: > 7.2 µM

----------
- Protocol Text: Oral bioavailability in Sprague-Dawley rat at 10 mg/kg administered as single dose measured up to 24 hrs post dose by LC-MS/MS analysis
- Type: ADME, organism-based
- Test Conditions: in vivo

Compound: CC(NC(=O)c1ccc(C(F)(F)F)cc1Cl)C1(N2CCN(S(=O)(=O)c3cn(C)nn3)CC2)CCC(F)(F)CC1.Cl (single isomer, unassigned; (+))
bioavailability [%]: 27.2

----------
- Protocol Text: Drug level in cynomolgus monkey CSF at 10 mg/kg, po measured at 8 hrs post dose by LC-MS/MS analysis
- Type: ADME, organism-based, Macaca fascicularis, Cerebrospinal fluid
- Test Conditions: read-out: Drug uptake
Reported Endpoint: concentration at 8 h (ng/mL)

Molecule: CC(NC(=O)c1ccc(C(F)(F)F)cc1Cl)C1(N2CCN(S(=O)(=O)c3cn(C)nn3)CC2)CCC(F)(F)CC1.Cl (single isomer, unassigned; (+))
Reading: 7.6

----------
- Protocol Text: Protein binding in human plasma
- Assay type: ADME, cell-free
- Test Conditions: read-out: PPB (converted)

Compound: CC(NC(=O)c1ccc(C(F)(F)F)cc1Cl)C1(N2CCN(S(=O)(=O)c3cn(C)nn3)CC2)CCC(F)(F)CC1.Cl (single isomer, unassigned; (+))
fraction unbound: 0.12

----------
- Protocol Text: Apparent permeability from apical to basolateral side in human Caco2 cells
- Assay type: ADME, cell-based
- Test Conditions: Caco-2
Reported Endpoint: Papp A→B (×10⁻⁶ cm/s)

Molecule: CC(NC(=O)c1ccc(C(F)(F)F)cc1Cl)C1(N2CCN(S(=O)(=O)c3cn(C)nn3)CC2)CCC(F)(F)CC1.Cl (single isomer, unassigned; (+))
Reading: 23.9

----------
- Protocol Text: Drug level in Sprague-Dawley rat plasma at 3 mg/kg, po measured 2 hrs post dose by LC-MS/MS analysis
- Format: ADME, organism-based
Reported Endpoint: concentration at 2 h (nM)

Compound: CC(NC(=O)c1ccc(C(F)(F)F)cc1Cl)C1(N2CCN(S(=O)(=O)c3cn(C)nn3)CC2)CCC(F)(F)CC1.Cl (single isomer, unassigned; (+))
Reported Endpoint: concentration at 2 h
U: nM
Reading: 52.2
--
Compound: Cl.Cn1cc(S(=O)(=O)N2CCN(C3(CNC(=O)c4ccc(C(F)(F)F)cc4Cl)CCC(F)(F)CC3)CC2)nn1
Reported Endpoint: concentration at 2 h
U: nM
Reading: 204
